Origin of values: paper PMC5463454

test: clinical; type: in vivo; conditions: human, plasma, oral, 50 mg, tmax, Day 1, 50 mg (n = 3), single dose; median (range)
value_kind: Tmax (h)
Value expressed in h; do not type the unit.

Param item = CC(C)NC[C@@H](C(=O)N1CCN(c2ncnc3c2[C@H](C)C[C@H]3O)CC1)c1ccc(Cl)cc1 ; retrieve measured Tmax. 2.92

----------
test: clinical; assay type: in vivo; conditions: human, plasma, oral, 25 mg, Cmax, Day 1, 25 mg (n = 3), single dose; geometric mean (%CV)
value_kind: Cmax (ng/mL)
Value expressed in ng/mL; do not type the unit.

Param item = CC(C)NC[C@@H](C(=O)N1CCN(c2ncnc3c2[C@H](C)C[C@H]3O)CC1)c1ccc(Cl)cc1 ; retrieve measured Cmax. 8.93
